# Subject of test: ClpC1-NTD substrate, M. tuberculosis ClpC1P1P2 (Mycobacterium tuberculosis, UniProt P9WPC9)
# Experimental protocol: biochemical
# Assay type: biochemical
# Assay setup: Mtb; mean of the measurements; read-out: 1-Dmax, Mean
Measured parameter: 1-Dmax (percent substrate remaining at maximal degradation) (%)
// note: answer is a bare numeric in %

Q: State its 1-Dmax (percent substrate remaining at maximal degradation) for this compound: CO[C@H](c1ccccc1)[C@@H]1NC(=O)[C@H](C)NC(=O)[C@H](C[C@@H](C)CO)N(C)C(=O)[C@H](Cc2cn(Cc3cn(CCCCCn4cc(Cn5cc(C[C@H]6C(=O)N(C)[C@@H](C[C@@H](C)CO)C(=O)N[C@@H](C)C(=O)N[C@@H]([C@H](OC)c7ccccc7)C(=O)N[C@@H](C(C)C)C(=O)N(C)[C@@H](CC(C)C)C(=O)N[C@@H](C(C)C)C(=O)N6C)c6ccccc65)nn4)nn3)c3ccccc23)N(C)C(=O)[C@H](C(C)C)NC(=O)[C@H](CC(C)C)N(C)C(=O)[C@H](C(C)C)NC1=O [SI-57]
A: 55

====

# Experimental protocol: Hepatocyte stability, mice
# Type: in vitro ADME
# Assay setup: mouse, pH 7.4
*1 amine or outer side, *2 acyl side, *3 side chain or, on linkers, in order; H or OH if unused. Where a SMILES comes first, the peptide text is derived from it. [ ]: non-standard residue; d: D form. Trp(1-(1,1-Me2-allyl)) = C=CC(C)(C)n1cc(C[C@H](N)C(=O)O)c2ccccc21; Ala(3R-Me,3-isobutenyl) = CC(C)=C[C@@H](C)[C@H](N)C(=O)O; X3 = C#CCOc1ccc([C@@H](OC)[C@H](N[*:1])C(=O)[*:2])cc1; X2 = C#CCn1cc(C[C@@H](C(=O)[*:2])N(C)[*:1])c2ccccc21; NMeTrp(1-Me) = CN[C@@H](Cc1cn(C)c2ccccc12)C(=O)O; X4 = C=CCO[C@H](c1ccccc1)[C@H](N[*:1])C(=O)[*:2]; NMeLeu(5-OH,4R) = CN[C@@H](C[C@@H](C)CO)C(=O)O; Phe(βR-OMe) = CO[C@H](c1ccccc1)[C@H](N)C(=O)O; Trp(1-Me) = Cn1cc(C[C@H](N)C(=O)O)c2ccccc21; NMeL = CN[C@@H](CC(C)C)C(=O)O; Pra = C#CC[C@H](N)C(=O)O
I would appreciate it if you labelled entries 1.0 when Hepatocyte Mice is 40 %Qh or higher, otherwise 0.0.

Q: Hi team, for C#CCOc1ccc([C@@H](OC)[C@@H]2NC(=O)[C@H](C)NC(=O)[C@H](C[C@@H](C)CO)N(C)C(=O)[C@H](Cc3cn(C)c4ccccc34)NC(=O)[C@H](C(C)C)NC(=O)[C@H](CC(C)C)N(C)C(=O)[C@H](C(C)C)NC2=O)cc1 [SI-38] (cyclo(A[X3]V[NMeL]V[Trp(1-Me)][NMeLeu(5-OH,4R)])) , is the recorded Hepatocyte Mice at or above 40 %Qh?
A: 0.0

Q: Exam item: decide whether the reported Hepatocyte Mice for C#CCn1cc(C[C@H]2C(=O)N(C)[C@@H](C[C@@H](C)CO)C(=O)N[C@@H](C)C(=O)N[C@@H]([C@H](OC)c3ccccc3)C(=O)N[C@@H](C(C)C)C(=O)N(C)[C@@H](CC(C)C)C(=O)N[C@@H](C(C)C)C(=O)N2C)c2ccccc21 [Compound 26] (cyclo(A[Phe(βR-OMe)]V[NMeL]V[X2][NMeLeu(5-OH,4R)])) is at least 40 %Qh.
A: 1.0

Q: Check the entry CO[C@H](c1ccccc1)[C@@H]1NC(=O)[C@H](C)NC(=O)[C@H](C[C@@H](C)CO)N(C)C(=O)[C@H](Cc2cn(C)c3ccccc23)N(C)C(=O)[C@H](CCC(=O)N(C)C)NC(=O)[C@H](CC(C)C)N(C)C(=O)[C@H](C(C)C)NC1=O [SI-76] (cyclo(A[Phe(βR-OMe)]V[NMeL]E(NMe2)[NMeTrp(1-Me)][NMeLeu(5-OH,4R)])) : does Hepatocyte Mice equal or exceed 40 %Qh?
A: 0.0

Q: Quick check, Hepatocyte Mice >= 40 %Qh? CO[C@H](c1ccccc1)[C@@H]1NC(=O)[C@H](C)NC(=O)[C@H](C[C@@H](C)CO)N(C)C(=O)[C@H](Cc2cn(C)c3ccccc23)NC(=O)[C@H](CCC(=O)N(C)C)NC(=O)[C@H](CC(C)C)N(C)C(=O)[C@H](C(C)C)NC1=O [SI-74] (cyclo(A[Phe(βR-OMe)]V[NMeL]E(NMe2)[Trp(1-Me)][NMeLeu(5-OH,4R)]))
A: 0.0

Q: Could you verify whether the entry C#CC[C@@H]1NC(=O)[C@H](CC(C)C)N(C)C(=O)[C@H](C(C)C)NC(=O)[C@H]([C@H](OC)c2ccccc2)NC(=O)[C@H](C)NC(=O)[C@H](C[C@@H](C)CO)N(C)C(=O)[C@H](Cc2cn(C)c3ccccc23)N(C)C1=O [Compound 20] (cyclo(A[Phe(βR-OMe)]V[NMeL][Pra][NMeTrp(1-Me)][NMeLeu(5-OH,4R)])) shows Hepatocyte Mice of no less than 40 %Qh?
A: 1.0

Q: Hi team, for C=CC(C)(C)n1cc(C[C@@H]2NC(=O)[C@H]([C@H](C)C=C(C)C)NC(=O)[C@H](CC(C)C)N(C)C(=O)[C@H](C(C)C)NC(=O)[C@H]([C@H](OC)c3ccccc3)NC(=O)[C@H](C)NC(=O)[C@H](C[C@@H](C)CO)N(C)C2=O)c2ccccc21 [dCymC] (cyclo([Trp(1-(1,1-Me2-allyl))][NMeLeu(5-OH,4R)]A[Phe(βR-OMe)]V[NMeL][Ala(3R-Me,3-isobutenyl)])) , is the recorded Hepatocyte Mice at or above 40 %Qh?
A: 1.0

Q: Could you tell me if the measured Hepatocyte Mice of COC(c1ccccc1)C1NC(=O)C(C)NC(=O)C(CC(C)CO)N(C)C(=O)C(Cc2cn(C)c3ccccc23)NC(=O)C(Cc2cn(CCCCCn3cc(CC4NC(=O)C(CC(C)C)N(C)C(=O)C(C(C)C)NC(=O)C(C(OC)c5ccccc5)NC(=O)C(C)NC(=O)C(CC(C)CO)N(C)C(=O)C(Cc5cn(C)c6ccccc56)NC4=O)nn3)nn2)NC(=O)C(CC(C)C)N(C)C(=O)C(C(C)C)NC1=O (centres unmarked) [Compound 12] reaches 40 %Qh or more?
A: 0.0

Q: Is reported Hepatocyte Mice greater than or equal to 40 %Qh here: C=CCO[C@H](c1ccccc1)[C@@H]1NC(=O)[C@H](C)NC(=O)[C@H](C[C@@H](C)CO)N(C)C(=O)[C@H](Cc2cn(C)c3ccccc23)NC(=O)[C@H](C(C)C)NC(=O)[C@H](CC(C)C)N(C)C(=O)[C@H](C(C)C)NC1=O [Compound 14] (cyclo(A[X4]V[NMeL]V[Trp(1-Me)][NMeLeu(5-OH,4R)]))
A: 0.0

Q: Answer whether Hepatocyte Mice of CO[C@H](c1ccccc1)[C@@H]1NC(=O)[C@H](C)NC(=O)[C@H](C[C@@H](C)CO)N(C)C(=O)[C@H](Cc2cn(Cc3cn(CCOCCOCCOCCOCCn4cc(Cn5cc(C[C@H]6C(=O)N(C)[C@@H](C[C@@H](C)CO)C(=O)N[C@@H](C)C(=O)N[C@@H]([C@H](OC)c7ccccc7)C(=O)N[C@@H](C(C)C)C(=O)N(C)[C@@H](CC(C)C)C(=O)N[C@@H](C(C)C)C(=O)N6C)c6ccccc65)nn4)nn3)c3ccccc23)N(C)C(=O)[C@H](C(C)C)NC(=O)[C@H](CC(C)C)N(C)C(=O)[C@H](C(C)C)NC1=O [Compound 27] is greater than or equal to 40 %Qh.
A: 0.0

Q: Please tell me: is the molecule CO[C@H](c1ccccc1)[C@@H]1NC(=O)[C@H](C)NC(=O)[C@H](C[C@@H](C)CO)N(C)C(=O)[C@H](Cc2cn(Cc3cn(CCCCCn4cc(Cn5cc(C[C@@H]6NC(=O)[C@H](C(C)C)NC(=O)[C@H](CC(C)C)N(C)C(=O)[C@H](C(C)C)NC(=O)[C@H]([C@H](OC)c7ccccc7)NC(=O)[C@H](C)NC(=O)[C@H](C[C@@H](C)CO)N(C)C6=O)c6ccccc65)nn4)nn3)c3ccccc23)NC(=O)[C@H](C(C)C)NC(=O)[C@H](CC(C)C)N(C)C(=O)[C@H](C(C)C)NC1=O [Compound 9] at or over 40 %Qh in terms of Hepatocyte Mice?
A: 0.0

Q: Please tell me: is the molecule CCCCCn1cc(C[C@@H]2NC(=O)[C@H](CC(C)C)N(C)C(=O)[C@H](C(C)C)NC(=O)[C@H]([C@H](OC)c3ccccc3)NC(=O)[C@H](C)NC(=O)[C@H](C[C@@H](C)CO)N(C)C(=O)[C@H](Cc3cn(C)c4ccccc34)N(C)C2=O)nn1 [Compound 25] at or over 40 %Qh in terms of Hepatocyte Mice?
A: 0.0
